# testTarget: VPS4B (Homo sapiens, UniProt O75351)
# methodDescription: VPS4B ATPase activity, EnzChek Phosphate assay
# Type: biochemical
# Parameters: His tag (pET28a vector-encoded) (N); made in house; host or cells: Escherichia coli BL21(DE3)
# experimentalConditions: remaining ATPase activity; screened at 5 μM; mean ± SD, Table 1
Class assignment keyed on VPS4B ATPase (% DMSO), ranges class 1: < 40 % DMSO; class 2: ≥ 40 % DMSO and < 50 % DMSO; class 3: ≥ 50 % DMSO

Worked cases, answers included:
COc1ccc2nc(NCc3ccccc3)nc(NCc3ccccc3)c2c1    class 2
COc1ccc2c(NCc3ccccc3)nc(NCc3ccccc3)nc2c1    class 1
COc1cccc2c(NCc3ccccc3)nc(NCc3cccc(C#N)c3)nc12    class 3

(Q) # classify by VPS4B ATPase (% DMSO) band: `COc1ccc(CNc2nc(NCc3ccccc3)c3cccc(OC)c3n2)cc1`
(A) class 1

----------
# testTarget: VPS4B (Homo sapiens)
# Sequence (O75351 1-444): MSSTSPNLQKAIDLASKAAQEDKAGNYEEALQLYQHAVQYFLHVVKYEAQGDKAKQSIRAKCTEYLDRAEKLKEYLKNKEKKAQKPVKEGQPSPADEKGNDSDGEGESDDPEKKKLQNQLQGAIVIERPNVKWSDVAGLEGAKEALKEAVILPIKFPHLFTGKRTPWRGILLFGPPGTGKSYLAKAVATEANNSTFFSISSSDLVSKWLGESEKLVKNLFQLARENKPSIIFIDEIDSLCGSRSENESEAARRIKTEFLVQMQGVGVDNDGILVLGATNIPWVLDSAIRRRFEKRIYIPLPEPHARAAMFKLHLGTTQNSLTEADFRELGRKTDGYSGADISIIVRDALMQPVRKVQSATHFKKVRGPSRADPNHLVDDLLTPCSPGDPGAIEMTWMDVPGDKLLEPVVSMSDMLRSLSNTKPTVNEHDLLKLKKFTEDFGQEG
# methodDescription: VPS4B ATPase activity, EnzChek Phosphate assay
# Type: biochemical
# Set-up: His tag (pET28a vector-encoded) (N); made in house; host or cells: Escherichia coli BL21(DE3)
# experimentalConditions: screened at 5 µM; mean ± S.D., Supplemental Table 2
quantityName: VPS4B ATPase (% DMSO)
Give just the numeric value; % DMSO need not be written.

Observe how each entry below is paired with its result.
COc1cccc2c(NCCc3ccccc3)nc(N[C@H](C)c3ccc4ccccc4c3)nc12    45.77
COC(=O)c1ccc2c(ccn2-c2nc(NCc3ccccc3)c3cccc(OC)c3n2)c1    80.70
COc1cccc2c(NCc3ccccc3)nc(Cl)nc12    71.88
COc1cccc2c(NCc3ccccc3)nc(N[C@@H](C)c3ccccc3)nc12    43.91
COc1cccc2c(NCc3ccccc3)nc(NCc3ccc(F)cc3)nc12    47.66
COc1cccc2c(NCc3ccccc3)nc(NC(c3ccccc3)c3ccccc3)nc12    37.77
COc1cccc2c(NCc3ccccc3)nc(-n3ccc4c(C(N)=O)cccc43)nc12    90.05
COc1cccc2c(NCc3ccc(Cl)cc3)nc(NCc3ccc(Cl)cc3)nc12    28.5

(Q) Given the compound `COc1cccc2c(NCc3ccccc3)nc(NCCc3ccccc3)nc12` , what is its reported VPS4B ATPase (% DMSO)?
(A) 45.53

(Q) Same for `COC(=O)c1cccc(CNc2nc(NCc3cccc(C(=O)OC)c3)c3cccc(OC)c3n2)c1`
(A) 34.70

(Q) Same for `COC(=O)c1ccc2ccn(-c3nc(NCCc4ccc(S(N)(=O)=O)cc4)c4cccc(OC)c4n3)c2c1`
(A) 94.98

(Q) Same for `COc1cccc2c(NCCc3ccccc3)nc(N[C@@H](C)c3ccc4ccccc4c3)nc12`
(A) 49.73

(Q) Same for `COc1cccc2c(NCc3ccccc3)nc(NCc3cccc(C(=O)O)c3)nc12`
(A) 88.20

(Q) Same for `COc1cccc2c(NCc3ccccc3)nc(NCc3ccc4ccccc4c3)nc12`
(A) 30.39

(Q) Same for `COc1cccc2c(NCc3ccccc3)nc(NCc3cccc(C#N)c3)nc12`
(A) 55.59

(Q) Same for `c1ccc(CNc2nc(NCc3ccccc3)c3ccccc3n2)cc1`
(A) 41.96

(Q) Same for `COc1ccc2c(NCc3ccccc3)nc(NCc3ccccc3)nc2c1`
(A) 35.59

(Q) Same for `COc1cccc2c(NCc3ccc(C(F)(F)F)cc3)nc(-n3ccc4cncnc43)nc12`
(A) 93.20

(Q) Same for `COc1cccc2c(NCCc3ccccc3)nc(NCCc3ccccc3)nc12`
(A) 30.96

(Q) Same for `COc1cccc2c(NCc3ccccc3)nc(NCc3cccc4ccccc34)nc12`
(A) 28.27

(Q) Same for `COC(=O)c1cccc2c1ccn2-c1nc(NCc2ccccc2)c2cccc(OC)c2n1`
(A) 86.66

(Q) Same for `COc1cccc2c(NCc3ccccc3)nc(N[C@H](C)c3ccccc3)nc12`
(A) 46.68

(Q) Same for `COc1ncnc2c1ccn2-c1nc(NCCc2ccccc2)c2cccc(OC)c2n1`
(A) 72.71

(Q) Same for `COc1cccc2c(NCCc3ccccc3)nc(NCc3ccccc3)nc12`
(A) 41.71

----------
# testTarget: recombinant human VCP (Rattus norvegicus, UniProt P46462)
# Construct: His (N); host or cells: Escherichia coli BL21(DE3)
# Sequence (P46462 2-806 limits assumed): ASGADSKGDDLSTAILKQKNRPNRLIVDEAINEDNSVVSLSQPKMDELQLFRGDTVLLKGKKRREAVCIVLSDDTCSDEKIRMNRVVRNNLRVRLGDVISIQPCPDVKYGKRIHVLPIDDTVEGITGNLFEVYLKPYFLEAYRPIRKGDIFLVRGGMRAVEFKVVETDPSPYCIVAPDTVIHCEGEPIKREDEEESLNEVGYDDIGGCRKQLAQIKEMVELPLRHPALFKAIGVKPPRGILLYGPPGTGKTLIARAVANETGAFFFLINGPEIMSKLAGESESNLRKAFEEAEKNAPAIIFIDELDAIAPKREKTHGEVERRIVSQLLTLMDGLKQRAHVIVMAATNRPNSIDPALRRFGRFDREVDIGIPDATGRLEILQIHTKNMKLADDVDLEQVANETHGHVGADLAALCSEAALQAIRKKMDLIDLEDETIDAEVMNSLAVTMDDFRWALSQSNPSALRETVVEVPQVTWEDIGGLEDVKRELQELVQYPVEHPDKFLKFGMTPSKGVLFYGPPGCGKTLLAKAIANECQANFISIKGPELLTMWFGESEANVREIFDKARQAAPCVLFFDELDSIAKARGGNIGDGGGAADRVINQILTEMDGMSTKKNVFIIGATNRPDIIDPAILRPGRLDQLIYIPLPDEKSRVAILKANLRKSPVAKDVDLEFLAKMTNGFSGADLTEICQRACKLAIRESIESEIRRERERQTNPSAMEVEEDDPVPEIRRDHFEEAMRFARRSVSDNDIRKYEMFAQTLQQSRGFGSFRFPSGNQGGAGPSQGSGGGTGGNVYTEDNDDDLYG
# methodDescription: VCP ATPase activity, EnzChek Phosphate assay
# Format: biochemical
# experimentalConditions: remaining ATPase activity; screened at 5 μM; mean ± SD, Table 2
Under this convention, yes (1) denotes VCP ATPase (% DMSO) strictly below 90 % DMSO and no (0) denotes VCP ATPase (% DMSO) at or above 90 % DMSO.

COc1ccc(CNc2nc(NCc3ccccc3)c3cccc(OC)c3n2)cc1    no (0)

(Q) Field: below-cutoff. Rule: recorded VCP ATPase (% DMSO) strictly less than 90 % DMSO. Subject: `COc1cccc2c(NCc3ccccc3)nc(NCc3cccc(F)c3)nc12`
(A) yes (1)

(Q) Same for `COc1cccc2c(NCc3ccccc3)nc(NCc3ccc(C)cc3)nc12`
(A) yes (1)

(Q) Same for `COc1cccc2c(NCc3ccccc3)nc(NCc3ccccc3)nc12`
(A) yes (1)

----------
# testTarget: VPS4B (Homo sapiens, UniProt O75351)
# methodDescription: VPS4B ATPase activity, EnzChek Phosphate assay
# Assay type: biochemical
# Set-up: His tag (pET28a vector-encoded) (N); made in house; host or cells: Escherichia coli BL21(DE3)
# experimentalConditions: screened at 5 µM; mean ± S.D., Supplemental Table 2
quantityName: VPS4B ATPase (% DMSO)
Give just the numeric value; % DMSO need not be written.

COc1cccc2c(NCCc3cccnc3)nc(-n3ccc4cncnc43)nc12    90.35
COc1cccc2c(NCc3ccccc3)nc(NCc3cccc(F)c3)nc12    35.22
COc1cccc2c(NCCc3ccccc3)nc(NCc3nc4ccccc4s3)nc12    75.99

(Q) Given the molecule `COc1cccc2c(NCc3ccc(F)cc3)nc(NCc3ccc(F)cc3)nc12` , what is its reported VPS4B ATPase (% DMSO)?
(A) 46.38

(Q) Same for `COc1cccc2c(NCc3ccccc3)nc(NCc3ccc(C#N)cc3)nc12`
(A) 54.50

(Q) Same for `COc1cccc2c(NCCc3ccccc3)nc(N[C@H](C)c3ccccc3)nc12`
(A) 40.44

(Q) Same for `COc1cccc2c(NCc3ccccc3)nc(N[C@@H](C)c3cccc4ccccc34)nc12`
(A) 49.27

(Q) Same for `COc1cccc2c(NCc3ccccc3)nc(NCc3cccc(C(F)(F)F)c3)nc12`
(A) 28.57

(Q) Same for `COc1cccc2c(NCc3ccccc3)nc(Nc3ccc4scnc4c3)nc12`
(A) 51.60

----------
# methodDescription: Caco-2 permeability
# Type: in vitro ADME
# experimentalConditions: human, 10 μM of compound
# Procedure: All in vitro absorption, distribution, metabolism, and excretion (ADME) studies were conducted by BioDuro-Sundia. […] Caco-2 permeability, human liver microsomal stability, and human plasma protein binding assays as well as liquid chromatography-mass spectrometry/mass spectrometry analyses were performed following standard protocols previously described in detail ([Kazakova et al, 2023]).
quantityName: Papp B→A at 10 μM (×10⁻⁶ cm/s)
Give just the numeric value; ×10⁻⁶ cm/s need not be written.

(Q) Given the compound COc1cccc2c(NCc3ccccc3)nc(NCc3ccccc3)nc12 [Compound 4-107] , what is its reported Papp B→A at 10 μM?
(A) 0.3

----------
# methodDescription: Acute dose MTD study
# experimentalConditions: both sexes, C57BL/6J, mouse, in vivo, ip, fixed daily doses 5, 10, 15, 20 mg/kg, B6 mice; read-out: acute dose MTD (tolerated dose)
quantityName: MTD (mg/kg)
Give just the numeric value; mg/kg need not be written.

(Q) Given the molecule COc1cccc2c(NCc3ccccc3)nc(NCc3ccccc3)nc12 [Compound 4-107] , what is its reported MTD?
(A) 5
